target: recombinant human HDAC6 (Homo sapiens (Human), UniProt Q9UBN7); assay: Enzymatic screening, HDAC6 inhibition (fluorogenic FdL_G substrate)
Sequence (Q9UBN7 whole entry): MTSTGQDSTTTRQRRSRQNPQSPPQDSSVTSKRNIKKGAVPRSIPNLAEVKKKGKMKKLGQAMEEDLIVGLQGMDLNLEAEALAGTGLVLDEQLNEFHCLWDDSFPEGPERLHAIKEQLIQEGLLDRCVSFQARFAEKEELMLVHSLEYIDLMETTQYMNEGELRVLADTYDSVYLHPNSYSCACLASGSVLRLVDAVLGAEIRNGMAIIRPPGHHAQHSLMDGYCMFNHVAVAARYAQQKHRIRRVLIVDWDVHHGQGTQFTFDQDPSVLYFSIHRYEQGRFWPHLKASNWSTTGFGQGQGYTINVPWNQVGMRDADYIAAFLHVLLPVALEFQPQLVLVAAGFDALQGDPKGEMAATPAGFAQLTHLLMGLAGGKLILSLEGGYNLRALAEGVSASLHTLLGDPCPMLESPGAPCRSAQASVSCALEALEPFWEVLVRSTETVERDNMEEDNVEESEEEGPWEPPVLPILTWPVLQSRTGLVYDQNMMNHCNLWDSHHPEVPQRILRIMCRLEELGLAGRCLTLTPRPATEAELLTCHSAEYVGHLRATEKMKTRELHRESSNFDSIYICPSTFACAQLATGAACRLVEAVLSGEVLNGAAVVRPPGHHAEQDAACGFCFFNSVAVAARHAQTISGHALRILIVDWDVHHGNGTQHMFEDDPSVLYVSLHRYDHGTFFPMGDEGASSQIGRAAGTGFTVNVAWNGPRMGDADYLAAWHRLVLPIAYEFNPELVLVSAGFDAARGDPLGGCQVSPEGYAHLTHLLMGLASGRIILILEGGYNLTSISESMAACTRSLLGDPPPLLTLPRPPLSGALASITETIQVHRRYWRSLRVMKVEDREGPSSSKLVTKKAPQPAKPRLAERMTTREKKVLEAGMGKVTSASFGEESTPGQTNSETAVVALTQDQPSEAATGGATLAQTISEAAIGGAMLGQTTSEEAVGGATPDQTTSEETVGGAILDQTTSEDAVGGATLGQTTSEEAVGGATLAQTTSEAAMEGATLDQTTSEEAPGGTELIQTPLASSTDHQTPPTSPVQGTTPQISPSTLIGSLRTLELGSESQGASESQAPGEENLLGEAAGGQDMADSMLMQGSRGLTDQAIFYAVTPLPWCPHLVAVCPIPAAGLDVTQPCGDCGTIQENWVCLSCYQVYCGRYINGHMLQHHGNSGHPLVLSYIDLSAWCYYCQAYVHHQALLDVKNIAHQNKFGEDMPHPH
Quantity name: IC50 (nM)
State just the number; it will be interpreted in nM.

INSERT INTO assay_data (compound, unit_symbol, reported_measurement) VALUES
  ('FC(F)c1nnc(-c2ccc(Cn3cc(-c4cnc5cccnn45)nn3)nc2)o1', 'nM', 31),
  ('O=C1Nc2cc(-c3cn(Cc4ccc(-c5nnc(C(F)F)o5)cn4)nn3)ccc2NC12CCNCC2', 'nM', 19),
  ('Nc1ccc(-c2cn(Cc3ccc(-c4nnc(C(F)F)o4)nn3)nn2)cn1', 'nM', 109),
  ('Nc1cccc(-c2nnn(Cc3ccc(-c4nnc(C(F)F)o4)cc3)n2)c1', 'nM', 50);

stdin: Notebook: pull reported IC50 for recombinant human HDAC6 (Homo sapiens (Human), UniProt Q9UBN7), entry CC(C)(C)OC(=O)N1CCC2(C1)C(=O)Nc1ccc(-c3cn(Cc4ccc(-c5nnc(C(F)F)o5)cc4)nn3)cc12 (centres unmarked)
stdout: 89

stdin: Notebook: pull reported IC50 for recombinant human HDAC6 (Homo sapiens (Human), UniProt Q9UBN7), entry `Cn1c(N)nc2cc(-n3cc(Cc4ccc(-c5nnc(C(F)F)o5)cc4)nn3)ccc21`
stdout: 461

stdin: Notebook: pull reported IC50 for recombinant human HDAC6 (Homo sapiens (Human), UniProt Q9UBN7), entry `FC(F)c1nnc(-c2ccc(Cn3cc(-c4ccc(NC5=NCCN5)cc4)cn3)nc2)o1`
stdout: 18

stdin: Notebook: pull reported IC50 for recombinant human HDAC6 (Homo sapiens (Human), UniProt Q9UBN7), entry CC(c1ccc(-c2nnc(C(F)F)o2)cc1F)n1cc(-c2cccc(NC(=O)N3CCOCC3)c2)nn1 (centres unmarked)
stdout: 78

====

target: recombinant human HDAC1 (Homo sapiens (Human)); test: Enzymatic screening, HDAC1 inhibition (fluorogenic FdL_G substrate)
Sequence (Q13547 whole entry): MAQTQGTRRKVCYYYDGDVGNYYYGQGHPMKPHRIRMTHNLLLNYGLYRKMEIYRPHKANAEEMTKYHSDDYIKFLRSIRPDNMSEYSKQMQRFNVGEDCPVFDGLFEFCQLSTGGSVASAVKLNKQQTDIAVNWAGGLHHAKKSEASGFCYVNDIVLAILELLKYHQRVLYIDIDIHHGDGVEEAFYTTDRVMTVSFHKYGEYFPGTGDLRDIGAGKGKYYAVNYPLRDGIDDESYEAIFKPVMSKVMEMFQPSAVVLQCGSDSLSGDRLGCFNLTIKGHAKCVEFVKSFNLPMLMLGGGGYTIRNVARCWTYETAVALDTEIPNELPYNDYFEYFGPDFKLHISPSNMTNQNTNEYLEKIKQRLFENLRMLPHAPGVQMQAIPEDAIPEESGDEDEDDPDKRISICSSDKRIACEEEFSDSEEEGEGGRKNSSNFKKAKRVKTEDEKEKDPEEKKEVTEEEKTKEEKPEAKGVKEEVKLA
Quantity name: IC50

Please review the following examples before continuing.
INSERT INTO assay_data (molecule, reported_measurement) VALUES
  ('O=C(Nc1cccc(-c2cn(Cc3ncc(-c4nnc(C(F)F)o4)cc3F)nn2)c1)N1CCOCC1', '> 1000 µM'),
  ('Cn1c(N)nc2cc(-c3cn(Cc4cc(F)c(-c5nnc(C(F)F)o5)cc4F)nn3)ccc21', '> 1000 µM'),
  ('CN1CCc2ccc(-c3nnn(Cc4ccc(-c5nnc(C(F)F)o5)cc4)n3)cc2C1=O', '> 200 µM'),
  ('COc1ncccc1-c1cn(Cc2ccc(-c3nnc(C(F)F)o3)cn2)nn1', '> 200 µM'),
  ('FC(F)c1nnc(-c2ccc(Cn3cc(-c4ccc(NC5=NCCN5)cc4)cn3)nc2)o1', '> 200 µM');

Lab note: next molecule to report on.
stdin: Would you mind telling me what IC50 value was observed for `FC(F)c1nnc(-c2ccc(Cn3cc(-c4cccs4)nn3)nc2)o1` ?
stdout: > 200 µM

====

experiment: Stability to Phase I metabolism in human S9 liver fraction; settings: after 90 minutes, 37° C.
Quantity name: residual percentage in HUMAN S9 FRACTION (%)
State just the number; it will be interpreted in %.

INSERT INTO results (molecule, reported_measurement) VALUES
  ('FC(F)c1nnc(-c2ccc(Cn3cnc(-c4ccc(NC5=NCCN5)cc4)c3)nc2)o1 [compound 20]', 99);

stdin: Would you mind telling me what residual percentage in HUMAN S9 FRACTION value was observed for O=C(Nc1ccc(-c2nnc(Cc3ccc(-c4nnc(C(F)F)o4)cn3)s2)cn1)C(F)F [Compd. 102] ?
stdout: 82

stdin: Would you mind telling me what residual percentage in HUMAN S9 FRACTION value was observed for O=C1NCc2ccc(-c3nnn(Cc4ccc(-c5nnc(C(F)F)o5)cn4)n3)cc21 [compound 4] ?
stdout: 77

stdin: Would you mind telling me what residual percentage in HUMAN S9 FRACTION value was observed for CCC[C@H](c1ccc(-c2nnc(C(F)F)o2)cc1)n1cc(-c2ccc(N)nc2)nn1 [compound 143] ?
stdout: 89

stdin: Would you mind telling me what residual percentage in HUMAN S9 FRACTION value was observed for NC(=O)c1cccc(-c2nnn(Cc3ccc(-c4nnc(C(F)F)o4)cc3)n2)c1 [compound 75] ?
stdout: 85

stdin: Would you mind telling me what residual percentage in HUMAN S9 FRACTION value was observed for FC(F)c1nnc(-c2ccc(Cn3cnc(-c4ccc(NC5=NCCN5)cc4)c3)cc2)o1 [compound 22] ?
stdout: 88

stdin: Would you mind telling me what residual percentage in HUMAN S9 FRACTION value was observed for CN(C)C(=O)c1cccc(-c2nnn(Cc3ccc(-c4nnc(C(F)F)o4)cc3)n2)c1 [compound 81] ?
stdout: 78

stdin: Would you mind telling me what residual percentage in HUMAN S9 FRACTION value was observed for C[C@@H](c1ccc(-c2nnc(C(F)F)o2)cc1)n1cc(-c2cccc(NC(=O)N3CCOCC3)c2)nn1 (stereo in doubt) [compound 104] ?
stdout: 86

====

target: recombinant human HDAC6 (Homo sapiens (Human), UniProt Q9UBN7); assay: Enzymatic screening, HDAC6 inhibition (fluorogenic FdL_G substrate)
pIC50: −log10 of the molar value.
Threshold rule: pIC50 greater than or equal to 7 is Criterion met; below that, Criterion not met.

Illustrative cases are given below, each with its answer.
INSERT INTO measurements (sample_smiles, class_name) VALUES
  ('Nc1ncc(-c2nnn(Cc3ccc(-c4nnc(C(F)F)o4)cc3)n2)cn1', 'Criterion met'),
  ('NC(=O)c1cccc(-c2noc(Cc3ccc(-c4nnc(C(F)F)o4)cc3)n2)c1', 'Criterion not met'),
  ('CCNc1ncc2cc(-c3cn(Cc4cc(F)c(-c5nnc(C(F)F)o5)cc4F)nn3)ccc2n1', 'Criterion not met'),
  ('Nc1cnc2ccc(-c3nnn(Cc4ccc(-c5nnc(C(F)F)o5)c(F)c4)n3)cc2c1', 'Criterion met');

Now examine the next entry.
stdin: Hi, just wondering whether `CC(C)(C)OC(=O)N1CCC2(CC1)Nc1ccc(-c3cn(Cc4ccc(-c5nnc(C(F)F)o5)cc4)nn3)cc1NC2=O` shows pIC50 of 7 or higher.
stdout: Criterion not met

====

experiment: Stability in human plasma; conditions: after 4 hours, 37° C.
Reported residual percentage in HUMAN PLASMA by item:

INSERT INTO measurements (sample_smiles, reported_measurement) VALUES
  ('Nc1ccc(-c2cn(Cc3cc(F)c(-c4nnc(C(F)F)o4)cc3F)nn2)cn1', '83%'),
  ('Nc1ccc(-c2cn(Cc3ccc(-c4nnc(C(F)F)o4)cn3)nn2)cn1', '74%'),
  ('Nc1ccc(-c2cnn(Cc3ccc(-c4nnc(C(F)F)o4)cc3)c2)cn1', '91%');

Lab note: next molecule to report on.
stdin: Would you mind telling me what residual percentage in HUMAN PLASMA value was observed for `CCNc1nc2ccc(-c3cn(Cc4ccc(-c5nnc(C(F)F)o5)cc4)nn3)cc2[nH]1` ?
stdout: 76%

====

Reported pIC50 by item:
molecular target: recombinant human HDAC1 (Homo sapiens (Human)); assay: Enzymatic screening, HDAC1 inhibition (fluorogenic FdL_G substrate)
pIC50: −log10 of the molar value.

INSERT INTO measurements (molecule, reported_measurement) VALUES
  ('Nc1nc2ccc(-c3cn(Cc4ncc(-c5nnc(C(F)F)o5)cc4F)nn3)cc2s1 [compound 342]', '< 3.00'),
  ('NC(=O)c1cccc(-c2cnn(Cc3ccc(-c4nnc(C(F)F)o4)cc3)c2)c1 [compound 333]', '< 3.00'),
  ('Nc1ccc(-c2cn(Cc3ccc(-c4nnc(C(F)F)o4)cc3Cl)nn2)cn1 [compound 134]', '< 3.70'),
  ('Cn1c(=N)n(C)c2cc(-c3cn(Cc4ccc(-c5nnc(C(F)F)o5)cc4)nn3)ccc21 [compound 162]', 4.35);

stdin: Notebook: pull reported pIC50 for recombinant human HDAC1 (Homo sapiens (Human)), entry FC(F)c1nnc(-c2ccc(Cc3cn(-c4ccc(NC5=NCCN5)cc4)nn3)cc2)o1 [compound 316]
stdout: < 3.00

stdin: Notebook: pull reported pIC50 for recombinant human HDAC1 (Homo sapiens (Human)), entry Nc1nc2cc(-c3nnn(Cc4ccc(-c5nnc(C(F)F)o5)cc4)n3)ccc2o1 [compound 152]
stdout: < 3.70

stdin: Notebook: pull reported pIC50 for recombinant human HDAC1 (Homo sapiens (Human)), entry O=C1NCc2ccc(-c3cn(Cc4ccc(-c5nnc(C(F)F)o5)cc4)nn3)cc21 [compound 109]
stdout: < 3.70

stdin: Notebook: pull reported pIC50 for recombinant human HDAC1 (Homo sapiens (Human)), entry O=C1CCc2ccc(-c3nnn(Cc4ccc(-c5nnc(C(F)F)o5)cc4)n3)cc21 [compound 203]
stdout: < 3.70

====

Reported residual percentage in HUMAN PLASMA by item:
assay: Stability in human plasma; settings: after 4 hours, 37° C.

Please review the following examples before continuing.
INSERT INTO results (molecule, reported_measurement) VALUES
  ('NC(=O)c1ccc(-c2nnn(Cc3ccc(-c4nnc(C(F)F)o4)cc3)n2)cc1', '82%'),
  ('CCC[C@@H](c1ccc(-c2nnc(C(F)F)o2)cc1)n1cc(-c2ccc(N)nc2)nn1 (stereo in doubt) [compound 193]', '81%'),
  ('C[C@@H](c1ccc(-c2nnc(C(F)F)o2)cc1)n1cc(-c2cccc(NC(=O)N3CCOCC3)c2)nn1 (stereo in doubt)', '92%');

Lab note: next molecule to report on.
stdin: Would you mind telling me what residual percentage in HUMAN PLASMA value was observed for `NC(=O)c1cccc(-c2nnn(Cc3ccc(-c4nnc(C(F)F)o4)c(F)c3)n2)c1` ?
stdout: 81%

Origin of the recorded values: patent US20230286970A1
